Data origin, for the record: patent US12583848B2

Test system: HeLa cells
Settings: human
Under this convention, yes denotes CC50 strictly below 20 µM and no denotes CC50 at or above 20 µM.

Example entries begin here.
CN(C)C(=O)c1cc(CCCOc2ccc(-c3noc(C(F)(F)F)n3)cc2[N+](=O)[O-])on1    no
CN(C)C(=O)c1cc(CCCOc2ccc(-c3noc(C(F)(F)F)n3)cc2C(F)(F)F)on1    yes
Cc1cc(-c2noc(C(F)(F)F)n2)ccc1OCCCc1cc(C(=O)N(C)C)no1    yes
CNC(=O)c1cc(CCCOc2ccc(-c3noc(C(F)(F)F)n3)cc2C(F)(F)F)on1    no
Cc1cc(-c2noc(C(F)(F)F)n2)cc(C)c1OCCCc1cc(C(N)=O)no1    no

Take the molecule COc1cc(-c2noc(C(F)(F)F)n2)ccc1OCCCc1cc(C(=O)N(C)C)no1 and say whether its CC50 is less than 20 µM.
no

Take the molecule CNC(=O)c1cc(CCCOc2c(C)cc(-c3noc(C(F)(F)F)n3)cc2C)on1 and say whether its CC50 is less than 20 µM.
no

Take the molecule CN(C)C(=O)c1cc(CCCOc2ccc(-c3noc(C(F)(F)F)n3)cc2)on1 and say whether its CC50 is less than 20 µM.
no
